This section presents molecules with their documented fold induction at 50 µM values.
Test system: P. aeruginosa
assay-info: AK assay 384-well format, Prestwick library screening
Format: cell-based, Pseudomonas aeruginosa
applied-conditions: Pseudomonas aeruginosa, 3 h, 50 μM final drug concentration; planktonic; […]; read-out: AK-based Prestwick Library Screening Results, P. aeruginosa (fold increase in extracellular AK activity)
Where a name gives a salt, the structure may show the parent alone.
reported-property: fold induction at 50 µM

Nc1ccc(S(=O)(=O)Nc2ccccn2)cc1 : 1.1
C[C@H](N)[C@H](O)c1ccc(O)c(O)c1 : 0.7
Cc1c(Nc2ncccc2C(=O)O)cccc1C(F)(F)F : 0.6
CN1C(C)(C)CCCC1(C)C [Pempidine tartrate] : 1.1
COc1cc2c(cc1O)[C@@H]1Cc3ccc(OC)c(O)c3CN1CC2 : 1.1
CCC1(CC)C(=O)C=CNC1=O : 0.6
